system: S. aureus (SAUR 9213); experiment: MIC, standard agar dilution method; assay type: cell-based; settings: Staphylococcus aureus, Table II, Mueller Hinton agar, incubated overnight at 35° C., read-out: SAUR 9213 MIC
The following compounds are listed with their measured MIC values.
Number first, unit second.

The following compounds have reported results that may help.
CC(=S)NC[C@H]1CN(c2ccc(N3CCOCC3)c(F)c2)C(=O)O1 = 1 µg/mL
O=C1O[C@@H](CNC(=S)CCl)CN1c1ccc(N2CCOCC2)c(F)c1 = 32 µg/mL
NC(=S)NC[C@H]1CN(c2ccc3c(c2)CCN3C(=O)CO)C(=O)O1 = 16 µg/mL
NC(=S)NC[C@H]1CN(c2ccc(N3CCOCC3)c(F)c2)C(=O)O1 = 1 µg/mL
NC(=S)NC[C@H]1CN(c2ccc(-n3cncn3)c(F)c2)C(=O)O1 = 4 µg/mL

Report MIC, nothing else, for this compound: O=C1O[C@@H](CNC(=S)C(F)(F)F)CN1c1ccc(N2CCOCC2)c(F)c1 8 µg/mL

Report MIC, nothing else, for this compound: CC(=S)NC[C@H]1CN(c2ccc(N3CCC4(CC3)NC(=O)NC4=O)c(F)c2)C(=O)O1 4 µg/mL

Report MIC, nothing else, for this compound: CC(=S)NC[C@H]1CN(c2ccc3c(c2)CCN3C(=O)CO)C(=O)O1 1 µg/mL

Report MIC, nothing else, for this compound: CC(=S)NC[C@H]1CN(c2ccc(N3CCN(c4nnc(C)s4)CC3)c(F)c2)C(=O)O1 8 µg/mL

Report MIC, nothing else, for this compound: CC(=S)NC[C@H]1CN(c2ccc(N3CC[S+]([O-])CC3)c(F)c2)C(=O)O1 0.5 µg/mL

###

system: Enterococcus faecalis (EFAE 9217); assay: MIC, standard agar dilution method; assay type: cell-based; conditions: Enterococcus faecalis, Table 1, Mueller Hinton agar, incubated overnight at 35° C., read-out: Oxazolidinone MIC Values (Gram+) EFAE 9217
The following molecules are listed with their measured MIC values.
Number first, unit second.

The following molecules have reported results that may help.
CC(=O)NC[C@H]1CN(c2ccc(N3CCN(c4nnc(C)s4)CC3)c(F)c2)C(=O)O1 [reference compound] = 1 µg/mL
NC(=S)NC[C@H]1CN(c2ccc(N3CCOCC3)c(F)c2)C(=O)O1 = 0.5 µg/mL
CC(=O)NC[C@H]1CN(c2ccc(N3CCC4(CC3)NC(=O)NC4=O)c(F)c2)C(=O)O1 [reference compound] = 8 µg/mL
CNC(=S)NC[C@H]1CN(c2ccc(N3CCOCC3)c(F)c2)C(=O)O1 = 2 µg/mL
CC(=O)NC[C@H]1CN(c2ccc(N3CCOCC3)c(F)c2)C(=O)O1 [reference compound] = 2 µg/mL
CC(=S)NC[C@H]1CN(c2ccc(N3CCC4(CC3)NC(=O)NC4=O)c(F)c2)C(=O)O1 = 2 µg/mL

Report MIC, nothing else, for this molecule: CC(=S)NC[C@H]1CN(c2ccc(N3CCOCC3)c(F)c2)C(=O)O1 0.5 µg/mL

Report MIC, nothing else, for this molecule: CC(=S)NC[C@H]1CN(c2ccc(N3CCN(c4nnc(C)s4)CC3)c(F)c2)C(=O)O1 4 µg/mL

###

test system: S. aureus (SAUR 9213); assay: MIC, standard agar dilution method; format: cell-based; conditions: Staphylococcus aureus, Table II, Mueller Hinton agar, incubated overnight at 35° C., read-out: SAUR 9213 MIC
Readout Name: MIC (µg/mL)
Provide only the numeric value, understood in µg/mL.

The following molecules have reported results that may help.
CC(=S)NC[C@H]1CN(c2ccc([C@H]3CC[S@@+]([O-])CC3)c(F)c2)C(=O)O1 [Example 7] = 0.5
O=C1O[C@@H](CNC(=S)C(F)F)CN1c1ccc(N2CCOCC2)c(F)c1 [Example 18] = 2
CC(=S)NC[C@H]1CN(c2ccc(-n3cncn3)c(F)c2)C(=O)O1 [Example 22] = 0.5
CCC(=S)NC[C@H]1CN(c2ccc(N3CCOCC3)c(F)c2)C(=O)O1 [Example 14] = 1
CC(=S)NC[C@H]1CN(c2ccc(N3CCSCC3)c(F)c2)C(=O)O1 [Example 26] = 1
NC(=S)NC[C@H]1CN(c2ccc(C3CCS(=O)(=O)CC3)c(F)c2)C(=O)O1 [Example 12] = 1
CC(=S)NC[C@H]1CN(c2ccc(N3CCN(C(=O)CO)CC3)c(F)c2)C(=O)O1 [Example 25] = 0.5

Please turn your attention to the following entry.
Report MIC, nothing else, for this molecule: NC(=S)NC[C@H]1CN(c2ccc(C3CC[S+]([O-])CC3)c(F)c2)C(=O)O1 (some centres unmarked) [Example 10] 2

###

The following compounds are listed with their measured log10 MIC values.
test system: E. Faecium (EFAE 12712); test: MIC, standard agar dilution method; format: cell-based; details: Enterococcus faecium; Table II; key: E. Faecium; agar dilution, Mueller Hinton agar, incubated overnight at 35° C.; read-out: EFAE 12712 MIC
For clarity, the numbers are log10 values of MIC expressed in µg/mL.

Report log10 MIC, nothing else, for this compound: NC(=S)NC[C@H]1CN(c2ccc3c(c2)CCN3C(=O)CO)C(=O)O1 [Example 32] 0.30

Report log10 MIC, nothing else, for this compound: CC(=S)NC[C@H]1CN(c2ccc(N3CCOCC3)c(F)c2)C(=O)O1 [Example 1] -0.30

Report log10 MIC, nothing else, for this compound: CC(=S)NC[C@H]1CN(c2ccc(N3CCC4(CC3)NC(=O)NC4=O)c(F)c2)C(=O)O1 [Example 3] 0.00

Report log10 MIC, nothing else, for this compound: CC(=S)NC[C@H]1CN(c2ccc(N3CCSCC3)c(F)c2)C(=O)O1 [Example 26] 0.00

Report log10 MIC, nothing else, for this compound: NC(=S)NC[C@H]1CN(c2ccc(C3CCS(=O)(=O)CC3)c(F)c2)C(=O)O1 [Example 12] -0.60

Report log10 MIC, nothing else, for this compound: CC(=S)NC[C@H]1CN(c2ccc(N3CC[S+]([O-])CC3)c(F)c2)C(=O)O1 [Example 27] -0.30

Report log10 MIC, nothing else, for this compound: CC(=S)NC[C@H]1CN(c2ccc(C3CCS(=O)(=O)CC3)c(F)c2)C(=O)O1 [Example 11] -0.60

Report log10 MIC, nothing else, for this compound: O=C1O[C@@H](CNC(=S)CCl)CN1c1ccc(N2CCOCC2)c(F)c1 [Example 15] 1.51

Report log10 MIC, nothing else, for this compound: CC(=S)NC[C@H]1CN(c2ccc(-n3cncn3)c(F)c2)C(=O)O1 [Example 22] 0.00

Report log10 MIC, nothing else, for this compound: NC(=S)NC[C@H]1CN(c2ccc(N3CCOCC3)c(F)c2)C(=O)O1 [Example 5] -0.30

Report log10 MIC, nothing else, for this compound: NC(=S)NC[C@H]1CN(c2ccc(N3CC[S+]([O-])CC3)c(F)c2)C(=O)O1 [Example 33] 0.00

###

The following compounds are listed with their measured melting point values.

CC(=S)NC[C@H]1CN(c2ccc(N3CCN(C(=O)CO)CC3)c(F)c2)C(=O)O1 [Example 25] = 163 to 165 °C
NC(=S)NC[C@H]1CN(c2ccc(-n3cncn3)c(F)c2)C(=O)O1 [Example 30] = 214 to 215 °C
CNC(=S)NC[C@H]1CN(c2ccc(N3CCOCC3)c(F)c2)C(=O)O1 [Example 6] = 158 to 160 °C
O=C1O[C@@H](CNC(=S)C(F)F)CN1c1ccc(N2CCOCC2)c(F)c1 [Example 18] = 125 to 127 °C

Please turn your attention to the following entry.
Report melting point, nothing else, for this compound: NC(=S)NC[C@H]1CN(c2ccc(N3CCOCC3)c(F)c2)C(=O)O1 [Example 5] 199 to 199.5 °C

###

The following molecules are listed with their measured MIC values.
system: Haemophilus influenzae (HINF 30063)
Provide only the numeric value, understood in µg/mL.

NC(=S)NC[C@H]1CN(c2ccc(-n3cncn3)c(F)c2)C(=O)O1 = 8
CC(=S)NC[C@H]1CN(c2cc(F)c(N3CCN(C(=O)CO)CC3)c(F)c2)C(=O)O1 = 2
CC(=S)NC[C@H]1CN(c2ccc(-n3cncn3)c(F)c2)C(=O)O1 = 4
NC(=S)NC[C@H]1CN(c2ccc(C3CCS(=O)(=O)CC3)c(F)c2)C(=O)O1 = 1
CCC(=S)NC[C@H]1CN(c2ccc(N3CCOCC3)c(F)c2)C(=O)O1 = 8

Give MIC for NC(=S)NC[C@H]1CN(c2ccc(N3CCN(C(=O)CO)CC3)c(F)c2)C(=O)O1 tested on Haemophilus influenzae (HINF 30063). 4

Give MIC for O=C1O[C@@H](CNC(=S)C(F)F)CN1c1ccc(N2CCOCC2)c(F)c1 tested on Haemophilus influenzae (HINF 30063). 32
